- tgt: Tyrosine-protein kinase CSK (Homo sapiens, UniProt P41240)
- Sequence (P41240 whole entry): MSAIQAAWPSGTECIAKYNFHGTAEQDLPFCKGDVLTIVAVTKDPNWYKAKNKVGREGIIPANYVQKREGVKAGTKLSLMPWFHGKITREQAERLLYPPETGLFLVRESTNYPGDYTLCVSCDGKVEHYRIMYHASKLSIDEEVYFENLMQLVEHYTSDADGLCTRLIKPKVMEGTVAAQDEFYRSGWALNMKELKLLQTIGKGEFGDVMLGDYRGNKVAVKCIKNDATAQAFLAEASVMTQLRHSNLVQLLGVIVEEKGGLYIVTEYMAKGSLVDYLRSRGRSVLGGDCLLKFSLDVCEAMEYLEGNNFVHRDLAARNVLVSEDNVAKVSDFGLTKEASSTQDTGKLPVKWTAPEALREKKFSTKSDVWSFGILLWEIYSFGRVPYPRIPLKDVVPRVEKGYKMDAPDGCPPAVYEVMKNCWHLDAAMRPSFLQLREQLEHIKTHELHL
Calls of active or inactive are those of the source.
Hello, when you answer, please use one of the following outcomes: yes for active, no for inactive

A selection of reference data follows.
>>> classification("COc1cc(Nc2ncc3c(n2)-c2ccc(Cl)cc2C(c2c(F)cccc2OC)=NC3)ccc1C(=O)O [ALISERTIB]")
"no"
>>> classification("CO[C@H]1C[C@@H]2CC[C@@H](C)[C@@](O)(O2)C(=O)C(=O)N2CCCC[C@H]2C(=O)O[C@H]([C@H](C)C[C@@H]2CC[C@@H](OP(C)(C)=O)[C@H](OC)C2)CC(=O)[C@H](C)/C=C(\\C)[C@@H](O)[C@@H](OC)C(=O)[C@H](C)C[C@H](C)/C=C/C=C/C=C/1C [RIDAFOROLIMUS]")
"no"
>>> classification("COc1c(OCCCN2CCOCC2)ccc2c1N=C(NC(=O)c1cnc(N)nc1)N1CCN=C21 [COPANLISIB]")
"no"

Hey, what did the test say about CN1CCN(CCOc2cc(OC3CCOCC3)c3c(Nc4c(Cl)ccc5c4OCO5)ncnc3c2)CC1 [SARACATINIB] ?
yes
